test_method_notes: Brain distribution after oral administration in normal mice
Assay type: in vivo, mouse
condition_description: mouse, brain, oral 10 mg/kg
measurement_name: Kp
Please give the numeric answer without any surrounding text.

Indicate the recorded Kp value for this compound: CCCCCCCCCCCCn1cc(C(N)(CO)CO)nn1 [SCNPA101, reference compound]
3.61
